Tested on: RXRa DBDmut IVT, anti-RXR (DBD mutation: RXRa K156A/R161A, NR concentration 90 nM)
Assay: PBM binding z-score (relative to random genomic background probes); higher = stronger binding; sequences stand for … in GC…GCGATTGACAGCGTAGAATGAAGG
Entries and their measured PBM binding z-score follow.
Note: the reply should be a number with no unit written.

Name the recorded PBM binding z-score of the item "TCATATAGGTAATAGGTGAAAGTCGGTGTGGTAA" in your answer.
1.59

###

Tested on: PPARg:RXRa 90nM:30nM, anti-RXR (NR concentration 90 nM, RXRa partner concentration 30 nM)
Test: PBM binding z-score (relative to random genomic background probes); higher = stronger binding; sequences stand for … in GC…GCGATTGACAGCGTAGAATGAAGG
Kindly return Fulfilled if reported PBM binding z-score is no lower than 5; return Not fulfilled if it is lower.

Look over these answered cases.
{"query_sequence": "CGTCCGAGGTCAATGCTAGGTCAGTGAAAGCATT", "cat": "Not fulfilled"}
{"query_sequence": "GGAACGGGGGCAAGTTGATAGCAGAGTTTGATGG", "cat": "Not fulfilled"}
{"query_sequence": "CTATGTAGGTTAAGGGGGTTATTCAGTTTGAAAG", "cat": "Fulfilled"}
{"query_sequence": "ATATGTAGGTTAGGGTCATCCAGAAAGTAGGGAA", "cat": "Fulfilled"}
{"query_sequence": "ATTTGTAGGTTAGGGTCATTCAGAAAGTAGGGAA", "cat": "Fulfilled"}
{"query_sequence": "GCTTACGGGTCAAAGGTTATAGTATGAATAGAAT", "cat": "Fulfilled"}
{"query_sequence": "TAGCCTAGGTCAGATCGGGGCAGTATACGCTATA", "cat": "Not fulfilled"}

Now consider the entry below.
Would you say "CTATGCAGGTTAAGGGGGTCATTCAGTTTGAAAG" shows PBM binding z-score at minimum 5?
Fulfilled
